B1: Zinc finger MYM-type protein 3, residues 405 to 444; numbered along this chain, Q14202 (parent)
chain: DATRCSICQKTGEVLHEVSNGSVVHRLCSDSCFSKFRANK

Variants of: B1
Assay: abundance fitness (aPCA) (normalised: wild type 0, dead -1); higher = more abundant; growth selection in yeast, the domain comes from the species named
Settings: Homo sapiens
# cutoff -0.2 applies to abundance fitness; >= gives true (1), < gives false (0)

Assess whether reported abundance fitness for DATRCSICQKTGEVLHEVSNGSVVHRLCSDSHFSKFRANK [C32H] sits at -0.2 or higher.
false (0)

Assess whether reported abundance fitness for DATRCSICQKTGEVLHEVSNGSVVHRLCSDSCDSKFRANK [F33D] sits at -0.2 or higher.
true (1)

Assess whether reported abundance fitness for DATRCSLCQKTGEVLHEVSNGSVVHRLCSDSCFSKFRANK [I7L] sits at -0.2 or higher.
true (1)

Assess whether reported abundance fitness for DATRCSICQKTGEVLHEVSNGSVVHRLCSDPCFSKFRANK [S31P] sits at -0.2 or higher.
true (1)

Assess whether reported abundance fitness for DATGCSICQKTGEVLHEVSNGSVVHRLCSDSCFSKFRANK [R4G] sits at -0.2 or higher.
false (0)

Assess whether reported abundance fitness for DATRCSICQKTGEVLHEVSNGSVVHRLCSDSSFSKFRANK [C32S] sits at -0.2 or higher.
false (0)

Assess whether reported abundance fitness for DATRCSICQKTGEVLHEVSNGSVVHRLCSDSCFCKFRANK [S34C] sits at -0.2 or higher.
false (0)

Assess whether reported abundance fitness for DATRCSICQKCGEVLHEVSNGSVVHRLCSDSCFSKFRANK [T11C] sits at -0.2 or higher.
false (0)

Assess whether reported abundance fitness for DATRCSICQKTGEVLHEVSNGSVVHRLCSDMCFSKFRANK [S31M] sits at -0.2 or higher.
true (1)

Assess whether reported abundance fitness for DATRCSICQKTGENLHEVSNGSVVHRLCSDSCFSKFRANK [V14N] sits at -0.2 or higher.
true (1)

Assess whether reported abundance fitness for DACRCSICQKTGEVLHEVSNGSVVHRLCSDSCFSKFRANK [T3C] sits at -0.2 or higher.
false (0)

Assess whether reported abundance fitness for DATRCSICQKTGEVLHEVSNGSVVHRLCSDSCSSKFRANK [F33S] sits at -0.2 or higher.
true (1)

Assess whether reported abundance fitness for DATRCSICQKTGEVLHEVSNGSVVHRLCSDSCFSKFRAIK [N39I] sits at -0.2 or higher.
true (1)

Assess whether reported abundance fitness for DATRCSICQKTGEVLVEVSNGSVVHRLCSDSCFSKFRANK [H16V] sits at -0.2 or higher.
false (0)
